meta.source: PubChem BioAssay AID624129

target: Apelin receptor (Homo sapiens) (UniProt P35414); experiment: potency against CXCR6 with APJ panel – cell-based, beta-arrestin, DiscoveRx, uHTS hits, dose response (AID 624129); conditions: CXCR6 beta-arrestin (DiscoveRx) antagonist cell assay, APJ, run 3, dose range 1
pIC50: −log10 of the molar value.
Cut-off 5 on pIC50, inclusive. At or above means TRUE; below means FALSE.

Qu. Textbook exercise: given the entry `Oc1c(I)cc(Cl)c2cccnc12` , state whether its pIC50 is greater than or equal to 5.
Ans. FALSE

Qu. Textbook exercise: given the entry `Cc1[nH][nH]c(=O)c1C(c1c(C)[nH][nH]c1=O)c1cn(Cc2ccc(F)cc2)c2ccccc12` , state whether its pIC50 is greater than or equal to 5.
Ans. FALSE

Qu. Textbook exercise: given the entry `O=C(Nc1nc(-c2ccccn2)cs1)c1cc(Cl)ccc1[N+](=O)[O-]` , state whether its pIC50 is greater than or equal to 5.
Ans. FALSE

Qu. Textbook exercise: given the entry `C=CCn1nc([N+](=O)[O-])nc1Sc1cccc2cccnc12` , state whether its pIC50 is greater than or equal to 5.
Ans. FALSE

Qu. Textbook exercise: given the entry `N#CC(C#N)=C1C=CC=CN1/C(=C\c1ccccc1Cl)C(=O)c1ccccc1` , state whether its pIC50 is greater than or equal to 5.
Ans. FALSE

###

For each of the compounds below, state its pIC50.
molecular target: Beta-galactosidase (Escherichia coli); test: potency against CXCR6 with APJ panel – cell-based, beta-arrestin, DiscoveRx, uHTS hits, dose response (AID 624129); settings: CXCR6 beta-arrestin (DiscoveRx) antagonist cell assay, b-galactosidase, dose range 1, mean IC50 across replicates
pIC50: −log10 of the molar value.

CCO[C@@H]1OC(C(=O)N2CCN(Cc3ccccc3)CC2)=C[C@H](c2ccc(Br)cc2)[C@H]1CCCO
< 4.10
N=C1S/C(=C\c2ccco2)C(=O)N1c1nccs1
< 4.10
Cc1cccc(C(=O)Nc2ccc(C(=O)/C=C/c3cccnc3)cc2)c1
< 4.10
COc1ccc([N+](=O)[O-])c(S(=O)(=O)c2ccc(Cl)cc2)n1
< 4.10
CCC(=O)OCCNc1cc(Sc2nc3ccccc3s2)c2nonc2c1[N+](=O)[O-]
< 4.10
O=[N+]([O-])c1c(Nc2ccccc2O)cc(Cl)c2nonc12
< 4.10
CCOc1ccc2nc(NC(=O)c3ccccn3)sc2c1
< 4.10
O=C(Nc1cccc(C(F)(F)F)c1)Oc1ccc(Cl)c2cccnc12
< 4.10

Hi team, please reply with pIC50 for each item in this list.
1. COc1ccc(N2C(=O)CC(Sc3nnnn3-c3ccc(F)cc3)C2=O)cc1 (stereo unspecified)
2. Cc1ccc(NC(=S)N/N=C/c2ccc([N+](=O)[O-])s2)cc1
3. Cc1ccc(-c2oc3ccccc3c(=O)c2O)cc1
4. COC(CNC(=O)c1cc(C(=O)c2c(-c3c(Cl)cccc3Cl)noc2C)c[nH]1)OC

Ans.
1. < 4.10
2. 4.50
3. < 4.10
4. < 4.10

###

target: C-C chemokine receptor type 6 (Homo sapiens) (UniProt P51684); experiment: potency against CXCR6 with APJ panel – cell-based, beta-arrestin, DiscoveRx, uHTS hits, dose response (AID 624129); settings: CXCR6 beta-arrestin (DiscoveRx) antagonist cell assay, CCR6, run 2, dose range 1
For each of the compounds below, state its pIC50.
Numbers only, as −log10 of the molar value.

Below, each entry is followed by its recorded pIC50 result.
C/C(=N\NC(=O)COc1ccccc1-c1ccccc1)c1ccccn1
5.61
O=C(CSc1cccc2cccnc12)N/N=C/c1cccnc1
5.23
Cc1[nH][nH]c(=O)c1C(c1c(C)[nH][nH]c1=O)c1cn(Cc2ccc(F)cc2)c2ccccc12
4.69
CCOc1ccc2nc(NC(=O)c3ccccn3)sc2c1
4.99
C=CS(=O)(=O)c1ccc(Oc2ccc(S(=O)(=O)C=C)cc2)cc1
5.16

Hi team, please reply with pIC50 for each item in this list.
1. O=C1C(Cc2ccccc2)Nc2ncnc(N3CCN(c4ccccc4)CC3)c2N1Cc1ccc(Br)cc1 (stereo unspecified)
2. COc1ccc(NC(=O)/C(Cl)=C(/Cl)S(=O)(=O)Cc2ccc(C)cc2)cn1
3. COc1ccc(OC)c(/C=C/c2ccc3cccc(O)c3n2)c1
4. Oc1c(I)cc(Cl)c2cccnc12
5. C=C1CC2(OC1=O)c1ccccc1CCc1ccccc12

Ans.
[5.84, 6.05, 5.10, 5.12, 4.97]

Reported pIC50 of `CN(c1ccccc1)S(=O)(=O)c1ccc(NC(=O)c2nc(S(C)(=O)=O)ncc2Cl)cc1` : 5.29
